test target: EPAC1-CNBD (Homo sapiens)
Sequence (O95398 169-318 isoform O95398-3): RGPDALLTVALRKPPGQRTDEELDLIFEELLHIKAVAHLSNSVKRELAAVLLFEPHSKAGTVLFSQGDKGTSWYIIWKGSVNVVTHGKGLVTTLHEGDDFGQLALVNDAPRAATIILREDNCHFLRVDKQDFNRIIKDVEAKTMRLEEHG
assay: 8-NBD-cAMP competition binding assay, EPAC1-CNBD
run conditions: compound 10 µM, EPAC1-CNBD 0.8 µM, 8-NBD-cAMP 62.5 nM; mean ± SEM; lower RFI = stronger binding
Flag rule - RFI (%) (relative fluorescence intensity), Table 2 less than 70% flags fulfilled; the remaining entries get not fulfilled.

// known answers, use as guide
# input Strictly below 70% in RFI (%) (relative fluorescence intensity), Table 2? "Cc1ccc(S(=O)(=O)NC(=O)COc2ccc3cc(Cl)ccc3c2)c(C)c1"
# output fulfilled

# input Identify whether the compound "Cc1ccc(S(=O)(=O)NC(=O)COc2ccc3[nH]ccc3c2)c(C)c1" records RFI (%) (relative fluorescence intensity), Table 2 below 70%.
# output not fulfilled

# input Confirm or reject: RFI (%) (relative fluorescence intensity), Table 2 of "Cc1ccc(S(=O)(=O)NC(=O)COc2ccc3ccc(Cl)cc3c2)c(C)c1" lies strictly below 70%
# output fulfilled

# input Consider the compound "Cc1ccc(S(=O)(=O)NC(=O)COc2ccc3[nH]ncc3c2)c(C)c1" . Is its RFI (%) (relative fluorescence intensity), Table 2 strictly less than 70%?
# output not fulfilled

Continuing:
# input Say whether its RFI (%) (relative fluorescence intensity), Table 2 is strictly beneath 70%. Entry: "Cc1ccc(S(=O)(=O)NC(=O)COc2ccc3cc(F)ccc3c2)c(C)c1"
# output fulfilled

###

test target: EPAC1-CNBD (Homo sapiens)
Sequence (O95398 169-318 isoform O95398-3): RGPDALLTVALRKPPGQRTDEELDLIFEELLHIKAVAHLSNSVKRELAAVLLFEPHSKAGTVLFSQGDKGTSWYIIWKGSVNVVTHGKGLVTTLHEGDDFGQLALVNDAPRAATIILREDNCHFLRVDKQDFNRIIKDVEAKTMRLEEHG
assay: 8-NBD-cAMP competition binding assay, EPAC1-CNBD
run conditions: compound 10 µM, EPAC1-CNBD 0.8 µM, 8-NBD-cAMP 62.5 nM; mean ± SEM; lower RFI = stronger binding
# Lookup of reported RFI (%) (relative fluorescence intensity), Table 1 keyed by entry
Quick reminder: number only, in %, skip the unit.

# input Note down RFI (%) (relative fluorescence intensity), Table 1 recorded for Cc1cc(C)c(S(=O)(=O)NC(=O)CNc2cccc(Cl)c2)c(C)c1 [Compound 9h]
# output 88

***
# input Kindly indicate its recorded RFI (%) (relative fluorescence intensity), Table 1. Item: Cc1cc(C)c(S(=O)(=O)NC(=O)CN2CCc3ccccc3C2)c(C)c1 [Compound 9j]
# output 102

# input Supply reported RFI (%) (relative fluorescence intensity), Table 1 belonging to this compound: COc1ccc2ccc(OCC(=O)NS(=O)(=O)c3c(C)cc(C)cc3C)cc2c1 [Compound 9e]
# output 49

# input Consider the compound Cc1cc(C)c(S(=O)(=O)NC(=O)CN2CCN(c3ccccn3)CC2)c(C)c1 [Compound 9m] . State its measured RFI (%) (relative fluorescence intensity), Table 1.
# output 119

# input Give me measured RFI (%) (relative fluorescence intensity), Table 1, please, for this compound: CC(=O)c1c(OCC(=O)NS(=O)(=O)c2c(C)cc(C)cc2C)ccc2ccccc12 [Compound 9d]
# output 104

# input Complete the entry with RFI (%) (relative fluorescence intensity), Table 1 for Cc1cc(C)c(S(=O)(=O)NC(=O)CSc2nc3ccccc3c(=O)[nH]2)c(C)c1 [Compound 9i]
# output 95

# input Specify measured RFI (%) (relative fluorescence intensity), Table 1 for Cc1cc(C)c(S(=O)(=O)NC(=O)CN2CCn3c(nnc3C(F)(F)F)C2)c(C)c1 [Compound 9l] .
# output 104

# input Quick one: give measured RFI (%) (relative fluorescence intensity), Table 1 for Cc1cc(C)c(S(=O)(=O)NC(=O)COc2cccc3ccccc23)c(C)c1 [Compound 9b]
# output 94
